Data origin: PubChem BioAssay (NCI)

test: NCI Yeast Anticancer Drug Screen. Data for the rad50 strain (AID 155); details: S. cerevisiae rad50 strain growth inhibition; at 50.0 µM
The panel holds about 79,000 compounds, 15% with a hit somewhere; the sample as a whole holds those more often. Activity calls are given as the source filed them. Cut-off read from the data, not from the text of the source: active = growth inhibition above about 70%; inactive = the rest.
// one of active, inactive, no free text

Study these solved cases before continuing.
MOLECULE: Cc1ccccc1NC(=O)C(=O)C(C#N)c1c(Cl)cccc1Cl (stereo unspecified)
ASSIGNED CATEGORY: inactive
//
MOLECULE: NCCc1ccc2oc3cc(=O)c4ccccc4c-3nc2c1
ASSIGNED CATEGORY: inactive
//
MOLECULE: COc1ccc(C(O)/C(=N\NC(N)=S)c2nc3ccc([N+](=O)[O-])cc3[nH]c2=O)cc1OC (stereo unspecified)
ASSIGNED CATEGORY: inactive
//
MOLECULE: S=C(N/N=C/c1ccccn1)N1CC2CCC(CC2)C1
ASSIGNED CATEGORY: active
//
MOLECULE: N#Cc1c(Cl)cc(Cl)n2c1nc1ccccc12
ASSIGNED CATEGORY: active
//
MOLECULE: CCOC(=O)c1ccc(O)c(C=O)c1
ASSIGNED CATEGORY: active
//
MOLECULE: O=[N+]([O-])C(=C(Nc1ccccc1)Nc1ccccc1)/C(Cl)=C(\Cl)Br
ASSIGNED CATEGORY: active
//
MOLECULE: CCCCN(Cc1ccccc1)CC(O)c1cc2c(c3ccccc13)CCCC2 (stereo unspecified)
ASSIGNED CATEGORY: active
//
MOLECULE: Nc1ncnc2c1c(-c1ccccc1)cn2-c1ccc(I)cc1
ASSIGNED CATEGORY: inactive
//
MOLECULE: COc1c(Br)c(=O)n(C)c(=O)n1C
ASSIGNED CATEGORY: active

In the following, a different molecule is considered.
Problem: Any idea what this test logged for N#CC(C#N)C(c1ccccc1)c1ccccc1 ?
Result: inactive
